Data origin: ChEMBL document CHEMBL3632552

# Experimental System: Sodium channel protein type 9 subunit alpha (Homo sapiens, UniProt Q15858)
# Sequence (Q15858 whole entry): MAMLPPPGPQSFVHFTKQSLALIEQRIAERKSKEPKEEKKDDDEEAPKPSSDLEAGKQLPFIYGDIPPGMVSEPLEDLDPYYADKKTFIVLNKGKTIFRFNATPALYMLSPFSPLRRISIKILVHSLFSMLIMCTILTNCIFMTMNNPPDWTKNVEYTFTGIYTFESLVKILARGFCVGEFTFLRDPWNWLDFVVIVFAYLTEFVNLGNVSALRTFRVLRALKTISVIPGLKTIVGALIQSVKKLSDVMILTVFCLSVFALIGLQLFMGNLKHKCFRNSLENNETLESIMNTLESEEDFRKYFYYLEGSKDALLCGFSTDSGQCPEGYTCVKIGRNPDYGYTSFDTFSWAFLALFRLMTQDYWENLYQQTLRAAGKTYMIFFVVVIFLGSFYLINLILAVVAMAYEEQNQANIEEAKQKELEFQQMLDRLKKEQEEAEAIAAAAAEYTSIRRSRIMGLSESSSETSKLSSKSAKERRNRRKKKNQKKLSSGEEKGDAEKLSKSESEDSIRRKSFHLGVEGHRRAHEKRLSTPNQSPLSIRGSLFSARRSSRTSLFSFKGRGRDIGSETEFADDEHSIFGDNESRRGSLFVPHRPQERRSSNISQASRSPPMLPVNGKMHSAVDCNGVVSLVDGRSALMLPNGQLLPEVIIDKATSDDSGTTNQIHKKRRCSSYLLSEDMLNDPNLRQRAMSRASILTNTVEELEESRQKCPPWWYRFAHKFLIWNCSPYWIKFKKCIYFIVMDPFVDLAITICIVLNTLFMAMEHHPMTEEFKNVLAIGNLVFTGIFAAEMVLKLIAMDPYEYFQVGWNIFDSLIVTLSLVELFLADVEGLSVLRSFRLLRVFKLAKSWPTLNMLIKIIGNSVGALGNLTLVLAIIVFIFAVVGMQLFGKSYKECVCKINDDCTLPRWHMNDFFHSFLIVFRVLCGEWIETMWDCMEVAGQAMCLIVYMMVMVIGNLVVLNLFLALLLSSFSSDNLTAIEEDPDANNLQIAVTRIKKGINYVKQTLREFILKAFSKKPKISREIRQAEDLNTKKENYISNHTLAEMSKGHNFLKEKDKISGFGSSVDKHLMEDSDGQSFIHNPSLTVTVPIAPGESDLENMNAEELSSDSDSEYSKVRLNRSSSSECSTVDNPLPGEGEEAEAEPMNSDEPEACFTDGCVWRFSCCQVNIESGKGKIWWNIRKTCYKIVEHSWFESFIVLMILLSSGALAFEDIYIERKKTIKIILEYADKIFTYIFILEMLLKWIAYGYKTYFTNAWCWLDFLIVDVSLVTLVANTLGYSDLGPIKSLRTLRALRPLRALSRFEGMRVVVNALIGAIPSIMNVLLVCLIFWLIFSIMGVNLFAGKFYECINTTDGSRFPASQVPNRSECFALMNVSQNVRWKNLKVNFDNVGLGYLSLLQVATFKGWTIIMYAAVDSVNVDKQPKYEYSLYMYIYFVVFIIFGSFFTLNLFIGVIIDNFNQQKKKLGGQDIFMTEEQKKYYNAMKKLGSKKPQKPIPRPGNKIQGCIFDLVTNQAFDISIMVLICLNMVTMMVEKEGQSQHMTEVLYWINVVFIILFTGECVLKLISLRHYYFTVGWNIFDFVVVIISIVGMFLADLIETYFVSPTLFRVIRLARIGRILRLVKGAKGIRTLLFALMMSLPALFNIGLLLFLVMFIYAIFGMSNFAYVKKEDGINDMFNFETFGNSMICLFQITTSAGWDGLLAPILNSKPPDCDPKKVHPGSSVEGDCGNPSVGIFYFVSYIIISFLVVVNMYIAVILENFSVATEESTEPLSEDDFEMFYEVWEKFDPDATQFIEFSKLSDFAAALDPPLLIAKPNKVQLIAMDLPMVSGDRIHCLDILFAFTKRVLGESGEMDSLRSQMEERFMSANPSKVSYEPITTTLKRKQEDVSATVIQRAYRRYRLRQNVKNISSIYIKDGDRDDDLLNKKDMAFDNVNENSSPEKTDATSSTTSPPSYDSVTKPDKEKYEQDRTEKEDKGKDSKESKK
# Method Summary: Inhibition of human NaV1.7 by IonWorks quattro automated electrophysiology assay
Endpoint Name: IC50 (µM)

[1] O=C1CCc2c(cccc2N2CCN(CC(O)COc3ccccc3C(=O)c3ccccc3)CC2)N1 (stereo unspecified)
[2] O=C(NC1CCN(CC(O)COc2ccccc2C(=O)c2ccccc2)CC1)c1ccccc1 (stereo unspecified)
Hello, I am sorting some records. Could you say if 1 or 2 has the smaller IC50 value? Choose, then provide that item's label.
2
(2: 1.1 µM, 1: 3.7 µM)

[a] O=C(c1ccccc1)c1ccccc1OCC(O)CN1CCC(C(=O)Nc2ccccc2)CC1 (stereo unspecified)
[b] O=C1c2ccccc2CN1C1CCN(CC(O)COc2ccccc2)CC1 (stereo unspecified)
Hello, I am sorting some records. Could you say if a or b has the smaller IC50 value? Choose, then provide that item's label.
a

----------
# Experimental System: Sodium channel protein type 9 subunit alpha (Mus musculus, UniProt Q62205)
# Sequence (Q62205 whole entry): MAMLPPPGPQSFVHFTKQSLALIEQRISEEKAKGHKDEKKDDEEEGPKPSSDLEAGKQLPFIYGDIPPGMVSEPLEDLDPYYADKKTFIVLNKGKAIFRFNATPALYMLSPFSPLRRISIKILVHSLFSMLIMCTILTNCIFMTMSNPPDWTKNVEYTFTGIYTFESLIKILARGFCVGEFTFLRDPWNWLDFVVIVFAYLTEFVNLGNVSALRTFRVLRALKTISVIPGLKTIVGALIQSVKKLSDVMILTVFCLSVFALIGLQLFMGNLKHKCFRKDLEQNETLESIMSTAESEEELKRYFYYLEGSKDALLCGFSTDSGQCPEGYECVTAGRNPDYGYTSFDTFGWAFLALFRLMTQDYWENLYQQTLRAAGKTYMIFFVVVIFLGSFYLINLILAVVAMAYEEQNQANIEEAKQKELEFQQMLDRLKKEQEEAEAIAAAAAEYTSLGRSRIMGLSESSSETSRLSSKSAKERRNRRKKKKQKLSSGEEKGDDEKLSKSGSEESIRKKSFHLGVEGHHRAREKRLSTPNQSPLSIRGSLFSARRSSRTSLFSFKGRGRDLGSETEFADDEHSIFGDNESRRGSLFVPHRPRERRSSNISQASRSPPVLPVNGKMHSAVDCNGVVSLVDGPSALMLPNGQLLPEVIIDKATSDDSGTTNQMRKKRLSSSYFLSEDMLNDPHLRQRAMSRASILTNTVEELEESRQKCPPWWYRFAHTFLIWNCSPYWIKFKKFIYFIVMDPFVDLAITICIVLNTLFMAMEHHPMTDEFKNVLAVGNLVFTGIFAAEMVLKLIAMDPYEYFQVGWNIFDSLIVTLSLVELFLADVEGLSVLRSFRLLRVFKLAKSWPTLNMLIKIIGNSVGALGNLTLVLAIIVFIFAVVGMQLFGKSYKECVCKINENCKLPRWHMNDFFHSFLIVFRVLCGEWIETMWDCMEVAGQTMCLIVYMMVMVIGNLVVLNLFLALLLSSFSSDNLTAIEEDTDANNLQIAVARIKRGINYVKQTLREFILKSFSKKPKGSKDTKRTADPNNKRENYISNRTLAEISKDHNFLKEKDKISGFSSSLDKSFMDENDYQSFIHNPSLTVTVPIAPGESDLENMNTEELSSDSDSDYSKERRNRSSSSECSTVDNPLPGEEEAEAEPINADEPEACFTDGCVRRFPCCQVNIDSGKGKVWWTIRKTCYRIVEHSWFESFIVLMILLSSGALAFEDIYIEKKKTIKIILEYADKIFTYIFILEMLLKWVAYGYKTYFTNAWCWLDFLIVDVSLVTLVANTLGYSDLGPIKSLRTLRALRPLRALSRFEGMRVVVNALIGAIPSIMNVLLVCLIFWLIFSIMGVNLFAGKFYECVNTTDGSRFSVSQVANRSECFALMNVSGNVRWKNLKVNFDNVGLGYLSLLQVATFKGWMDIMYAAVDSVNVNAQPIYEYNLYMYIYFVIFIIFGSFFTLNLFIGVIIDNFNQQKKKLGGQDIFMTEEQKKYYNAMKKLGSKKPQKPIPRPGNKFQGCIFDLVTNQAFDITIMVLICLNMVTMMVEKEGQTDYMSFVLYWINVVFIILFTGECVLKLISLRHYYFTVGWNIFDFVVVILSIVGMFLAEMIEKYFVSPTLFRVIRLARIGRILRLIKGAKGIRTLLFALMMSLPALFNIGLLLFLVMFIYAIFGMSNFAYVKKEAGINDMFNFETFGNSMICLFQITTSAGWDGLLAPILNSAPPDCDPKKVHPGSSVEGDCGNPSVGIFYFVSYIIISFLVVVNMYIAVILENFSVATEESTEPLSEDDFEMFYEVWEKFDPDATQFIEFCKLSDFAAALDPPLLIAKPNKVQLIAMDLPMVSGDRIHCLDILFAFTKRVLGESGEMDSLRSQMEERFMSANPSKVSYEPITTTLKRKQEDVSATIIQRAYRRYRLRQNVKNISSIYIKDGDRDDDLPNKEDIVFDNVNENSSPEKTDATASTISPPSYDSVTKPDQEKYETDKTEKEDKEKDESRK
# Method Summary: Inhibition of mouse NaV1.7 by IonWorks quattro automated electrophysiology assay
pIC50: −log10 of the molar value.
Endpoint Name: pIC50

Molecule	Experimental System	pIC50
O=C1COc2c(cccc2N2CCN(CC(O)COc3ccccc3C(=O)c3ccccc3)CC2)N1 (stereo not given)	Sodium channel protein type 9 subunit alpha (Mus musculus, UniProt Q62205)	5.30
O=C(c1ccccc1)c1ccccc1OCC(O)CN1CCC(n2c(=O)oc3ccccc32)CC1 (stereo not given)	Sodium channel protein type 9 subunit alpha (Mus musculus, UniProt Q62205)	5.51

[I] COc1ccccc1OCC(O)CN1CCC(N2Cc3ccccc3C2=O)CC1 (stereo not given)
[II] O=C(Nc1ccccc1)C1CCN(CC(O)COc2ccc(C(F)(F)F)cc2)CC1 (stereo not given)
[III] O=C1c2ccccc2CN1C1CCN(CC(O)COCc2ccc(C(F)(F)F)cc2)CC1 (stereo not given)
Please list these molecules in decreasing order of pIC50. Use the labels to give the requested order.
II, III, I

----------
# Experimental System: Sodium channel protein type 1 subunit alpha (Homo sapiens)
# Method Summary: Inhibition of human NaV1.1 by IonWorks quattro automated electrophysiology assay
Endpoint Name: IC50 (µM)

These solved cases illustrate the format of a correct answer.
Molecule	Value Observed
O=C1c2ccccc2CN1C1CCN(CC(O)COc2ccccc2C(F)(F)F)CC1 (centres undefined)	4.5
O=C(c1ccccc1)c1ccccc1OCC(O)CN1CCC(C(=O)Nc2ccccc2)CC1 (centres undefined)	4.3

[P] Cc1cccc(C)c1OCC(C)N.Cl (centres undefined) [MEXILETINE HYDROCHLORIDE]
[Q] O=C1COc2c(cccc2C2CCN(CC(O)COc3ccccc3C(=O)c3ccccc3)CC2)N1 (centres undefined)
Hello, I am sorting some records. Could you say if P or Q has the smaller IC50 value? Choose, then provide that item's label.
Q

----------
# Experimental System: Sodium channel protein type 9 subunit alpha (Mus musculus)
# Method Summary: Inhibition of mouse NaV1.7 by IonWorks quattro automated electrophysiology assay
Endpoint Name: IC50 (nM)

These solved cases illustrate the format of a correct answer.
Compound	IC50, nM
O=C(c1ccccc1)c1ccccc1OCC(O)CN1CCC(N2C(=O)Cc3ccccc32)CC1 (centres undefined)	5000
O=C(NC1CCN(CC(O)COc2ccc(C(F)(F)F)cc2)CC1)c1ccccc1 (centres undefined)	400
COc1cc(C(F)(F)F)ccc1COCC(O)CN1CCC(N2Cc3ccccc3C2=O)CC1.O=C(O)/C=C/C(=O)O (centres undefined)	790
O=C(c1ccccc1)c1cccc(OCC(O)CN2CCC(N3Cc4ccccc4C3=O)CC2)c1 (centres undefined)	960
COc1cccc(OCC(O)CN2CCC(N3Cc4ccccc4C3=O)CC2)c1 (centres undefined)	910
O=C(NC1CCN(CC(O)COc2ccccc2C(=O)c2ccccc2)CC1)c1ccccc1 (centres undefined)	920
O=C(c1ccccc1)c1ccccc1OCC(O)CN1CCN(c2cccc3[nH]c(=O)oc23)CC1 (centres undefined)	31000

[I] O=C1c2ccccc2CN1C1CCN(CC(O)COc2ccccc2)CC1 (centres undefined)
[II] O=C1COc2c(cccc2C2CCN(CC(O)COc3ccccc3C(=O)c3ccccc3)CC2)N1 (centres undefined)
Hello, I am sorting some records. Could you say if I or II has the smaller IC50 value? Choose, then provide that item's label.
II
